Test system: Escherichia coli TOP10;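 further: peptides expressed intracellularly from a pBAD plasmid library in pooled LB shake-flask culture, induced with 0.3% L-arabinose, DNA abundance read by NGS, three biological replicates, DESeq2 with apeglm shrinkage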
Assay: shrunken log2 fold change of peptide-encoding DNA abundance (4.5 h post-induction vs induction); higher = less antimicrobial activity (less host growth inhibition)
Conditions: time post-induction: 4.5 h; library: site-saturation at positions 5, 18, 19, 20
QUANTITY_MEASURED: shrunken log2 fold change
Numbers only.

record_sequence=RRIRMRPPRLPRPRPRPDEPPRP assay_target="Escherichia coli TOP10" quantity_measured="shrunken log2 fold change" reported_result=2.72
record_sequence=RRIRKRPPRLPRPRPRPNIDPRP assay_target="Escherichia coli TOP10" quantity_measured="shrunken log2 fold change" reported_result=-0.0981
record_sequence=RRIRARPPRLPRPRPRPMCDPRP assay_target="Escherichia coli TOP10" quantity_measured="shrunken log2 fold change" reported_result=0.526
record_sequence=RRIRRRPPRLPRPRPRPWCPPRP assay_target="Escherichia coli TOP10" quantity_measured="shrunken log2 fold change" reported_result=-0.0442
record_sequence=RRIRSRPPRLPRPRPRPCPMPRP assay_target="Escherichia coli TOP10" quantity_measured="shrunken log2 fold change" reported_result=-0.337
record_sequence=RRIRWRPPRLPRPRPRPKFCPRP assay_target="Escherichia coli TOP10" quantity_measured="shrunken log2 fold change" reported_result=-0.116
record_sequence=RRIRHRPPRLPRPRPRPLGDPRP assay_target="Escherichia coli TOP10" quantity_measured="shrunken log2 fold change" reported_result=0.146
record_sequence=RRIRFRPPRLPRPRPRPADQPRP assay_target="Escherichia coli TOP10" quantity_measured="shrunken log2 fold change" reported_result=-0.144
record_sequence=RRIRCRPPRLPRPRPRPNTKPRP assay_target="Escherichia coli TOP10" quantity_measured="shrunken log2 fold change" reported_result=-0.358
record_sequence=RRIRPRPPRLPRPRPRPAFDPRP assay_target="Escherichia coli TOP10" quantity_measured="shrunken log2 fold change" reported_result=0.388

Working through the 8 sequences below one at a time, give shrunken log2 fold change for each.
1. RRIRIRPPRLPRPRPRPICQPRP
2. RRIRRRPPRLPRPRPRPHNAPRP
3. RRIRKRPPRLPRPRPRPTFIPRP
4. RRIRTRPPRLPRPRPRPGDWPRP
5. RRIRERPPRLPRPRPRPCSYPRP
6. RRIRGRPPRLPRPRPRPKSKPRP
7. RRIRMRPPRLPRPRPRPKQPPRP
8. RRIRNRPPRLPRPRPRPEEDPRP

OUTPUT:
-0.418
2.48
-0.0546
0.73
-0.0141
0.611
2.34
0.659
